Molecular target: T1, recombinant human PD-L1 expressed with a C-terminal myc-myc-hexahistidine tag (hPD-L1-MMH) (human)
T1 construct: Monomeric PD-L1 reagent; also called hPD-L1-MMH Monomer
T1 sequence (chain, as listed by the source limits assumed): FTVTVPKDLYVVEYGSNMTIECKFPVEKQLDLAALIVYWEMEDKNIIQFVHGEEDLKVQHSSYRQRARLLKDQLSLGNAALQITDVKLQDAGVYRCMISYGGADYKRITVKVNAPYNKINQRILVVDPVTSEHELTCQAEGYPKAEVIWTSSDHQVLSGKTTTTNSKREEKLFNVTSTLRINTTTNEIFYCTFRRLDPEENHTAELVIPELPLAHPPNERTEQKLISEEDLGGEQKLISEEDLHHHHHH
Test: SPR, captured mAb, 25 C
Listing: pKd of selected binders
Kindly note that pKd refers to -log10 of the concentration in mol/L and answer with the value alone.

H2aM8310N (antibody, mouse IgG2, V domains shown, also called H2M8310N) VH: QVQLVQSGAEVKKPGASVQVSCKASGYSFTGYYIHWVRQAPGQGLEWMGWINPNSGTKKYAHKFQGRVTMTRDTSIDTAYMILSSLISDDTAVYYCARDEDWNFGSWFDSWGQGTLVTVSS VL: DIVMTQTPLSSPVTLGQPASISCRSSQTLVHGDGNTYLSWIQQRPGQPPRLLIYKVSNQFSGVPDRFSGSGAGTDFTLKISRVEAEDVGLYFCMQATHFPITFGQGTRLEIK = 8.46
H2aM8321N (antibody, mouse IgG2, V domains shown, also called H2M8321N) VH: EERLVESGGDLVQPGGSLRLSCAASGITVGTNYMNWVRQAPGKGLEWVSVISSGGNTHYADSVKGRFIMSRQTSKNTLYLQMNSLETEDTAVYYCARGIRGLDVWGQGTMVTVSS VL: DIQMTQSPSSLSASVGDRVTITCRASQSMSSYLNWYQQKPGRAPKLLIFAASSLQSGVPSRFSGSGSGTDFTLTISSLQPEDFATYYCQQSYSTPPITFGQGTRLEIK = 7.46

Now look at this entry.
Exercise: Return pKd (reported value) for this binder: H1H9329P (antibody, human IgG1, V domains shown) VH: EVQLVESGGGLVQSGGSLRLSCAASGFTFSSYWMSWVRQAPGKGLEWVANIKQDGSEKYYVDSVKGRFTISRDNAKNSLYLQMNSLRADDTAVYYCARDDIVVVPAPMGYYYYYFGMDVWGQGTTVTVSS VL: DIQMTQSPSSLSASVGDRVTITCRASQGIRNDLGWYQQKPGKAPKRLIYAASSLQSGVPSRFSGSGSGTEFTLTISSLQPEDFATYYCLQHNSYPYTFGQGTKLEIK
Key: 7.12
